Ref: paper PMC9514218

Target: T1, SURP1 (res. 48–110) of human SF3A1, R62Q mutant (human, UniProt Q15459 48-110, R62Q)
T1 sequence: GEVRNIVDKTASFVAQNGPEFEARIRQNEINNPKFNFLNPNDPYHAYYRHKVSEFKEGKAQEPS
Assay: BLI
Ends that are not written are not given here.
valueType: Kd (µM)
Supply the numeric figure in µM, leaving out any unit text.

Query string: Reported Kd, binder QRPGDPQSAQDKARMDKEYLSLMAELGEAPVPA (peptide, UniProt Q15637 295-327, looked up, also: biotin (position not given here)) [biotin-tagged SF1 S1BRp (res. 295–327)] : ____
Result string: 187
